# assayedTarget: Left-right determination factor 2 (Homo sapiens) (UniProt O00292)
# Sequence (O00292 whole entry, looked up): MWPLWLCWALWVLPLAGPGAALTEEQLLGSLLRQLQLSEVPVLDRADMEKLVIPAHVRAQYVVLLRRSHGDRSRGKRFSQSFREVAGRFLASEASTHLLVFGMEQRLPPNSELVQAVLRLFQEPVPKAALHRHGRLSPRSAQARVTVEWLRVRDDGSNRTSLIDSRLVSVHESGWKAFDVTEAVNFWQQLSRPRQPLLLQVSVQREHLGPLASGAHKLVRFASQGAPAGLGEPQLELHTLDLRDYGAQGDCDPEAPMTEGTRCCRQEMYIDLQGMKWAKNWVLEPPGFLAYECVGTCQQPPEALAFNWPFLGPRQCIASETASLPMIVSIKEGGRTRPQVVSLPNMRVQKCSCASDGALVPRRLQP
# procedureSummary: small molecules binding LEFTY2 protein – biochemical, small-molecule microarray, 635 nm fluorescence scan, primary screen (AID 1110)
# conditionLabel: higher = more signal
For each entry below, report its composite z-score value.

Q. # composite z-score lookup, item COc1ccc([Si](C)(C)[C@@H]2[C@@H](CC(=O)N(CCO)Cc3ccccc3)O[C@]3(C(=O)N(Cc4ccc(I)cc4)c4ccccc43)[C@H]2C)cc1
A. 0.792

Q. # composite z-score lookup, item CCOC(=O)c1cn(C[C@H](Cc2ccccc2)NC(=O)N[C@H](CO)CCc2oc(C(C)=O)c(C(=O)OC)c2C(=O)OC)nn1
A. 0.896

Q. # composite z-score lookup, item COc1ccc(C(=O)Nc2cccc(CN3C(=O)[C@@]4(O[C@@H](CC(=O)N5CCC[C@H]5CO)[C@H]([Si](C)(C)c5ccc(OC)cc5)[C@H]4C)c4ccccc43)c2)cc1
A. 0.801
